Test system: MS2 coat protein
assayProcedure: apparent KD of MS2 coat protein; designed switch direction (-1 OFF switch, 1 ON switch): 1; higher = weaker reporter binding
runConditions: input ligand: none
Given measured apparent KD of MS2 coat protein, output MET if it is greater than or equal to 100 nM and NOT MET if not.

For orientation, consider the following solved cases.
# biosequence, discreteLabel
records = [
    ("GCGGAACCUGACAUGAGGAUCACCCAUGUUCCGGAAACGGCACAGGAUAUCUGUCCGAAAAGGUCAGAGAAGGGUGGAAACCGC [Fiskers NG3ss - 98] (Eterna round: R96, puzzle: Same State NG 3)", "MET"),
    ("UGCUACGGAGACAUGAGGAUCACCCAUGUCGCUGCUUAAGGGCAGGAUAUGAAAGGGAAUCCCAAUCAGAAGGGCCGCAGCCAC [Isanxeanor] (Eterna round: R96, puzzle: Same State NG 3)", "NOT MET"),
    ("UGGCUGGUGAUAGGAUAUACAUGAGGAAUCCUCGUAGAAGGAUCACGACAUGAGGAUCACCCAUGUAGCCGUCCGUAGACGGCU [salish99_SSNG1_r04_005] (Eterna round: R96, puzzle: Same State NG 1)", "MET"),
    ("AACAGUCGGCGAGGAUAUGGACGUACGGACUAACCCGUGCAGCUCACAUGAGGAUCACCCAUGUUCUAGAAGGCGCCACUGAAA [Onesusatza] (Eterna round: R96, puzzle: Same State NG 2)", "MET"),
]

Dear colleague, could you confirm whether GCUCGCACGAUGACCCACAUGAGGAUCACCCAUGUGUGUGGGUAGGAUAUCUAUAUUAAGGAUUUAGAGAAGGGCCGAGCGAGC [SameState NG3 #22] (Eterna round: R96, puzzle: Same State NG 3) has apparent KD of MS2 coat protein at or above 100 nM?
MET

Dear colleague, could you confirm whether GGAAAGAGGUCAGGAUAUGAAUGUUUGGGACAUGAGGAUCACCCAUGUAAUAGAAGAAAUCUACAUUAGAAGGGACAAGGAAGG [AK SSNG2-V2-6] (Eterna round: R96, puzzle: Same State NG 2) has apparent KD of MS2 coat protein at or above 100 nM?
NOT MET

Dear colleague, could you confirm whether GCUCGAUGUGUUGUCUACAUGAGGAUCACCCAUGUAGAUGCGGAGGAUAUCUACGUGCUUUAUGUAGAGAAGGUCGUAUCGAGC [SameState NG3 #85] (Eterna round: R96, puzzle: Same State NG 3) has apparent KD of MS2 coat protein at or above 100 nM?
NOT MET

Dear colleague, could you confirm whether AGAUCAUGACGAGGAUAUGGUACAUGAGGAUCACCCAUGUAUGUACCAUAAUUAGUAUUAGGAAACCAGAAGGCGUCGUGGUCA [JL SSNG2 1.18] (Eterna round: R96, puzzle: Same State NG 2) has apparent KD of MS2 coat protein at or above 100 nM?
NOT MET

Dear colleague, could you confirm whether GCCGCGUUUCACGCCUACAUGAGGAUCACCCAUGUAUGUAGGCAGGAUAUCGUUUGCUUUGCAAACGAGAAGGGCUGUAGUGGC [salish99_SSNG3_R04_007] (Eterna round: R96, puzzle: Same State NG 3) has apparent KD of MS2 coat protein at or above 100 nM?
MET

Dear colleague, could you confirm whether CCAGCAUCACGAGGAUAUGGAGGUUCCCGAAAGACAUGAGGAUCACCCAUGUAUGUACGCCGCCUUCAGAAGGUGUAUAAGCGA [Eternabot solution 31] (Eterna round: R96, puzzle: Same State NG 2) has apparent KD of MS2 coat protein at or above 100 nM?
NOT MET

Dear colleague, could you confirm whether ACAUGAAAUUGAGGAUAUUUUGUACCUACAUGUGACAUGAGGAUCACCCAUGUGGUAAGUAUGAGAAAGAAGGCAAAGAUAUGU [Equivalence 11 - Jieux - Same State NG 2] (Eterna round: R96, puzzle: Same State NG 2) has apparent KD of MS2 coat protein at or above 100 nM?
NOT MET

Dear colleague, could you confirm whether AGCUAUUAAUCAGGAUAUAGUGACAUGAGGAUCACCCAUGUAUUGAUGAUUAAAUGUGGUCGCCGCUAGAAGGGAUUACUAACA [SameState NG2 #46] (Eterna round: R96, puzzle: Same State NG 2) has apparent KD of MS2 coat protein at or above 100 nM?
NOT MET

Dear colleague, could you confirm whether GCCGCGUUUCGCGCCUACAUGAGGAUCACCCAUGUUUGUAGGCAGGAUAUCGUUUGCUUUGCAACCGAGAAGGGCUGUUGUGGC [salish99_SSNG3_R04_013] (Eterna round: R96, puzzle: Same State NG 3) has apparent KD of MS2 coat protein at or above 100 nM?
NOT MET

Dear colleague, could you confirm whether GCUAGAAUAAAAGCCAACAUGAGGAUCACCCAUGUAUGUUGGCAGGAUAUCGUUUGCAAAGCAAACGAGAAGGGCCAUACUAGC [Mat - Same State NG 3 - JL Mod - D23] (Eterna round: R96, puzzle: Same State NG 3) has apparent KD of MS2 coat protein at or above 100 nM?
MET

Dear colleague, could you confirm whether GGCGGCCUGGGAGGAUAUCGGGCCCUUUGGGCCCGAGAAGGUCCGGAGCCUCUGACAUGAGGAUCACCCAUGUAGGCUGCUGCC [first try] (Eterna round: R96, puzzle: Same State NG 1) has apparent KD of MS2 coat protein at or above 100 nM?
MET

Dear colleague, could you confirm whether GAGAGAUGGCGAGGAUAUUCGGUGAUAAUGAUAGAAGAAGGCGCUGACAUGAGGAUCACCCAUGUGGGAAUAAUCCAGAGAGAG [Parity 18 - Jieux - Same State NG 1] (Eterna round: R96, puzzle: Same State NG 1) has apparent KD of MS2 coat protein at or above 100 nM?
MET
